measured property: melting point

| compound | recorded value |
| --- | --- |
| Cc1n(Cc2ccccc2)c2ccccc2[n+]1CC(=O)Nc1ccc(Br)cc1.[Br-] [Compound 10e] | 212 °C |
| Cc1n(Cc2ccccc2)c2ccccc2[n+]1CC(=O)Nc1cccc([N+](=O)[O-])c1.[Br-] [Compound 10g] | 180 to 182 °C |
| COc1ccc(NC(=O)C[n+]2cn(Cc3ccccc3)c3ccccc32)cc1.[Br-] [Compound 9m] | 171 to 173 °C |
| Cc1n(Cc2ccccc2)c2ccccc2[n+]1CC(=O)Nc1ccc(Cl)cc1.[Br-] [Compound 10b] | 178 to 180 °C |
| O=C(C[n+]1cn(Cc2ccccc2)c2ccccc21)Nc1ccccc1Br.[Br-] [Compound 9c] | 192 to 194 °C |
| Cc1cccc(NC(=O)C[n+]2c(C)n(Cc3ccccc3)c3ccccc32)c1.[Br-] [Compound 10j] | 192 to 194 °C |
| Cc1ccc(NC(=O)C[n+]2cn(Cc3ccccc3)c3ccccc32)cc1.[Br-] [Compound 9k] | 148 to 149 °C |
| O=C(C[n+]1cn(Cc2ccccc2)c2ccccc21)Nc1cccc(Br)c1.[Br-] [Compound 9d] | 176 to 178 °C |

* * *

# subject of test: α-glucosidase enzyme (Saccharomyces cerevisiae, UniProt P53341)
# Construct: purchased Sigma-Aldrich, Munich, Germany
# Sequence (P53341 whole entry): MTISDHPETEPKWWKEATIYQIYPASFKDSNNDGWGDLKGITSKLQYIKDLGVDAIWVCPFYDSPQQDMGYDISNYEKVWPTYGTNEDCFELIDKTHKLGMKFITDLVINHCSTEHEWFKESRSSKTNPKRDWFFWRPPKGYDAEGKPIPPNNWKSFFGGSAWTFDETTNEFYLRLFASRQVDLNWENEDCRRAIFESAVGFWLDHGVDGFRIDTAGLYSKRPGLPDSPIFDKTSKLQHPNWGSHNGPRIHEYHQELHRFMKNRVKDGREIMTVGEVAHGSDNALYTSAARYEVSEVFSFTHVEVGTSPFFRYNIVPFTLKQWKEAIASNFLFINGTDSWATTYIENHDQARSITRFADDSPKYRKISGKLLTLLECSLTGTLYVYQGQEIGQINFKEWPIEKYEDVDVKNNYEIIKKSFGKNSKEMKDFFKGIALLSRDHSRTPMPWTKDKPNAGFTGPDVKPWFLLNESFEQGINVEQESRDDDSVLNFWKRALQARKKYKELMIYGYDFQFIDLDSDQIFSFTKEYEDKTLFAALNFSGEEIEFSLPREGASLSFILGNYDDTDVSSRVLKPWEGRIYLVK
# assay remarks: biochemical
# Format: biochemical
pIC50: −log10 of the molar value.

| molecule | subject of test | pIC50 |
| --- | --- | --- |
| O=C(C[n+]1cn(Cc2ccccc2)c2ccccc21)Nc1ccc(Cl)cc1.[Br-] | α-glucosidase enzyme (Saccharomyces cerevisiae, UniProt P53341) | 3.77 |
| COc1ccc(NC(=O)C[n+]2c(C)n(Cc3ccccc3)c3ccccc32)cc1.[Br-] [Compound 10m] | α-glucosidase enzyme (Saccharomyces cerevisiae, UniProt P53341) | 4.79 |
| COc1ccccc1NC(=O)C[n+]1cn(Cc2ccccc2)c2ccccc21.[Br-] | α-glucosidase enzyme (Saccharomyces cerevisiae, UniProt P53341) | 4.13 |
| Cc1n(Cc2ccccc2)c2ccccc2[n+]1CC(=O)Nc1ccc(Cl)cc1.[Br-] [Compound 10b] | α-glucosidase enzyme (Saccharomyces cerevisiae, UniProt P53341) | 4.22 |
| Cc1n(Cc2ccccc2)c2ccccc2[n+]1CC(=O)Nc1cccc(Br)c1.[Br-] [Compound 10d] | α-glucosidase enzyme (Saccharomyces cerevisiae, UniProt P53341) | 4.85 |
| Cc1cccc(NC(=O)C[n+]2c(C)n(Cc3ccccc3)c3ccccc32)c1.[Br-] [Compound 10j] | α-glucosidase enzyme (Saccharomyces cerevisiae, UniProt P53341) | 4.22 |
| Cc1n(Cc2ccccc2)c2ccccc2[n+]1CC(=O)Nc1ccccc1[N+](=O)[O-].[Br-] [Compound 10f] | α-glucosidase enzyme (Saccharomyces cerevisiae, UniProt P53341) | 4.22 |
| O=C(C[n+]1cn(Cc2ccccc2)c2ccccc21)Nc1cccc([N+](=O)[O-])c1.[Br-] | α-glucosidase enzyme (Saccharomyces cerevisiae, UniProt P53341) | 3.67 |
| Cc1ccc(NC(=O)C[n+]2cn(Cc3ccccc3)c3ccccc32)cc1.[Br-] | α-glucosidase enzyme (Saccharomyces cerevisiae, UniProt P53341) | 3.70 |
| O=C(C[n+]1cn(Cc2ccccc2)c2ccccc21)Nc1ccccc1[N+](=O)[O-].[Br-] | α-glucosidase enzyme (Saccharomyces cerevisiae, UniProt P53341) | 3.62 |
| O=C(C[n+]1cn(Cc2ccccc2)c2ccccc21)Nc1cccc(Cl)c1.[Br-] | α-glucosidase enzyme (Saccharomyces cerevisiae, UniProt P53341) | 3.82 |
| Cc1n(Cc2ccccc2)c2ccccc2[n+]1CC(=O)Nc1ccc([N+](=O)[O-])cc1 [Compound 10h] | α-glucosidase enzyme (Saccharomyces cerevisiae, UniProt P53341) | 4.77 |
| O=C(C[n+]1cn(Cc2ccccc2)c2ccccc21)Nc1ccccc1Br.[Br-] | α-glucosidase enzyme (Saccharomyces cerevisiae, UniProt P53341) | 4.15 |
| COc1ccccc1NC(=O)C[n+]1c(C)n(Cc2ccccc2)c2ccccc21.[Br-] [Compound 10l] | α-glucosidase enzyme (Saccharomyces cerevisiae, UniProt P53341) | 4.60 |
| COc1ccc(NC(=O)C[n+]2cn(Cc3ccccc3)c3ccccc32)cc1.[Br-] | α-glucosidase enzyme (Saccharomyces cerevisiae, UniProt P53341) | 3.55 |
| Cc1ccc(NC(=O)C[n+]2c(C)n(Cc3ccccc3)c3ccccc32)cc1.[Br-] [Compound 10k] | α-glucosidase enzyme (Saccharomyces cerevisiae, UniProt P53341) | 4.49 |
